I'd appreciate it if you could supply self-cleavage values for the items below.
B1: CPEB3 Ribozyme (parent)
chain: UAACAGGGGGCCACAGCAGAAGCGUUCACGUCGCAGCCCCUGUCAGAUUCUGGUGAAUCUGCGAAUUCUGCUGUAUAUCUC

# Variants of: B1
# procedure_summary: self-cleavage, relative activity (ratio to wild type); higher = more cleavage; in vitro, sequencing
Output: the number by itself.

Could you tell me which self-cleavage is on file for A28U U76A ?
0.87

Could you tell me which self-cleavage is on file for C39A G73C ?
0.76

Could you tell me which self-cleavage is on file for A21U C37U ?
0.18

Could you tell me which self-cleavage is on file for U1C U58A ?
0.46

Could you tell me which self-cleavage is on file for A15C A18G ?
0.41

Could you tell me which self-cleavage is on file for G46A C50G ?
0.21

Could you tell me which self-cleavage is on file for U54C A65G ?
0.49

Could you tell me which self-cleavage is on file for C29U U41C ?
0.49
